Collected Kd values appear next to each entry.
# measured_on: T1, human IL-11 (AAH12506.1, Pro22-Leu199) (human, UniProt P20809 22-199)
# T1 construct: The range Pro22-Leu199 counts on AAH12506.1; The Octet runs say only 'human IL-11'; also called hIL-11
# T1 chain: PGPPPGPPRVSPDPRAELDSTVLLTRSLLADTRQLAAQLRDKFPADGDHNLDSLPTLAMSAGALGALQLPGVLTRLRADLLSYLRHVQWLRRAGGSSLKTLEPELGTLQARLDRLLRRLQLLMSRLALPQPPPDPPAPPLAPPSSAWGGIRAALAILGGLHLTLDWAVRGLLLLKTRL
# assay_method_text: BLI (Octet), antibody captured, human IL-11 in solution
Numeric only. Scale: nM

1. hz8C8-VHm5 + hz8C8-VLm7 (antibody, human IgG1, kappa, V domains shown, human IgG1 constant regions) VH: EVQLVESGGGLVQPGGSLRLSCAASGFTFSSFGMSWVRQAPGKGLEWVAYITPGSNTIYYADTVKGRFTISRDNAKNSLYLQMNSLRAEDTAVYYCAREYYSYDEGFAYWGQGTLVTVSS VL: EIVLTQSPATLSLSPGERATLSCSVSDLIPSQYLHWYQQKPGQAPRLLIYRTSNLASGIPARFSGSGSGTDFTLTISSLEPEDFAVYYCQQGVDVPFTFGQGTKLEIKR; 0.19
2. hz8C8-VHm1 + hz8C8-VLm7-m1 (antibody, human IgG1, kappa, V domains shown, human IgG1 constant regions) VH: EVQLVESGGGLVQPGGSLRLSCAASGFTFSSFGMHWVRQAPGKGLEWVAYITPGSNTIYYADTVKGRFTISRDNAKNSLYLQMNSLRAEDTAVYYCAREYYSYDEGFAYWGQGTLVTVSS VL: EIVLTQSPATLSLSPGERATLSCSVSDLIPSQYLHWYQQKPGQAPRLLIYRASNLASGIPARFSGSGSGTDFTLTISSLEPEDFAVYYCQQGVDVPFTFGQGTKLEIKR; 0.13
3. hz8C8-VHm1 + hz8C8-VLm6 (antibody, human IgG1, kappa, V domains shown, human IgG1 constant regions) VH: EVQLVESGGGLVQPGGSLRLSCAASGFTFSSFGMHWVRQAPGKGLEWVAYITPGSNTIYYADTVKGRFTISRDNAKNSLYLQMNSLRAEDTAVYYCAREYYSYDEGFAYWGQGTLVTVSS VL: EIVLTQSPATLSLSPGERATLSCSVSSLIPSKYLHWYQQKPGQAPRLLIYRTSNLASGIPARFSGSGSGTDFTLTISSLEPEDFAVYYCQQGVDVPFTFGQGTKLEIKR; 0.0412

Incoming: Please report Kd for the following binder: hz8C8-VHm1 + hz8C8-VLm8 (antibody, human IgG1, kappa, V domains shown, human IgG1 constant regions) VH: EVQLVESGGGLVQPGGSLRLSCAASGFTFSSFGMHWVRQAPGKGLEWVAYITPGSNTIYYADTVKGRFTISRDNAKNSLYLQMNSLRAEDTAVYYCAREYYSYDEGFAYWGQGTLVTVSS VL: EIVLTQSPATLSLSPGERATLSCSVSDLIPSQYLSWYQQKPGQAPRLLIYRTSNLASGIPARFSGSGSGTDFTLTISSLEPEDFAVYYCQQGVDVPFTFGQGTKLEIKR
Outgoing: 0.0313
